Hi there, I'd appreciate the recorded composite z-score for every entry that follows.
test: small-molecule binders of probe aLefty1, primary screen, biochemical, small-molecule microarray, 635/667 nm fluorescence (AID 1153); conditions: higher = more signal;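 also: score merges spot fluorescence with signal-to-noise ratio from the scanned slide images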
Numbers only.

CCN1C(=O)[C@H]2[C@H]3[C@H](O)[C@H](O)CC(=NOCC[C@@H]4C=C[C@H](OC(C)=O)[C@@H](COC(C)=O)O4)[C@@H]3CC[C@H]2C1=O :: -0.125
COC(=O)[C@@H]1CC[C@H](C)[C@@H](c2ccc(Br)cc2)N1 :: -0.0879

Working through the 8 molecules below one at a time, give composite z-score for each.
1. C#CCCCON=C1C[C@@H](O)[C@@H](O)[C@@H]2[C@@H]3C(=O)N(C[C@@H]4CCCO4)C(=O)[C@@H]3CC[C@@H]12
2. CC(CCC(=O)OC[C@H]1O[C@H](C#Cc2ccccc2)C=C[C@@H]1Oc1ccc(C)cc1)=NOC(C)CN1CCCCc2nc(C)c(C)cc21 (stereo partly specified)
3. CCN1C(=O)[C@H]2[C@H]3[C@H](O)[C@H](O)CC(=NO[C@H](C)c4cn([C@H](CO)Cc5ccccc5)nn4)[C@@H]3CC[C@H]2C1=O
4. CCOC(=O)[C@H](Cc1ccccc1)NC(=O)CCC1CC(OC(=O)NCc2ccc3c(c2)OCO3)CC2(CCCC(COC(=O)NCCOC)O2)O1 (stereo partly specified)
5. COC(=O)[C@H](C)NC(=O)CCC1CC(OC(=O)NCc2cccc3ccccc23)CC2(CCCC(COC(=O)NCCC(C)C)O2)O1 (stereo partly specified)
6. CC(C)[C@H](NC(=O)OC(C)(C)C)[C@@H](O)CC(=O)C(C)(C)C
7. CC(=O)OC[C@H]1O[C@H](CC=NO[C@H](C)c2cn([C@@H]3COC[C@H]3O)nn2)C=C[C@@H]1OC(C)=O
8. C=CCOCC1CN2[C@@H](CC[C@@H](C)[C@@H]2c2ccc(Br)cc2)C(=O)O1 (stereo partly specified)

[0.145, -0.191, -0.323, -0.0428, 0.423, -0.267, -0.27, -0.147]

Working through the 5 molecules below one at a time, give composite z-score for each.
1. O=C1[C@H]2CCn3c(=O)n(-c4ccccc4)c(=O)n3[C@H]2[C@H](O)[C@@H]2O[C@H]12
2. C[C@@H]1CC[C@H]2C(=O)N3[C@@H](CC[C@@H](C)[C@@H]3c3ccc(Br)cc3)C(=O)N2[C@H]1c1ccc(Br)cc1
3. CC(C)=NO[C@@H](C)c1cn([C@H](CO)Cc2ccccc2)nn1
4. CC(CCN1CCCCc2nc(C)c(C)cc21)=NO[C@@H](C)c1cc(-c2c(C)cc(C)cc2C)no1
5. C=CC[C@@H]1C=C[C@H](ON=C[C@@H](NS(=O)(=O)c2ccc(C)cc2)[C@H](C)C=CCC(=O)OC)[C@@H](CO)O1

[-0.391, -0.0099, 0.423, -0.196, -0.191]

Working through the 8 molecules below one at a time, give composite z-score for each.
1. CC(C)(C)N1C(=O)[C@H]2[C@@H]3C(=CC[C@H]2C1=O)C(=O)[C@H]1O[C@H]1[C@H]3O
2. COc1ccc(O[C@H]2C=C[C@@H](c3ccccc3)O[C@@H]2COC(=O)NCc2cccc3ccccc23)cc1
3. CO[C@@H]1C=CCC(=O)N[C@@H](C)C(=O)OC[C@@H](NS(=O)(=O)c2ccc(C)cc2)[C@H](C)C=CCC(=O)OC[C@H]1C
4. CCOC(=O)[C@H](CC(C)C)NC(=O)CCC1CC(OC(=O)NCCc2ccc(F)cc2)CC2(CCCC(COC(=O)NCc3cccc(C(F)(F)F)c3)O2)O1 (stereo partly specified)
5. Cc1ccc(C(C)C)n1C(=O)OC(C)(C)C
6. COC(=O)[C@@H]1CC[C@H](C)[C@@H](c2ccc(C)cc2)N1C(=O)c1ccc(C=NO[C@@H](C)c2cc(-c3c(C)cc(C)cc3C)no2)cc1
7. COc1ccc(COC(=O)NN=C2C[C@@H](O)[C@@H](O)[C@@H]3[C@@H]4C(=O)N(c5cccc(Oc6ccccc6)c5)C(=O)[C@@H]4CC[C@H]23)cc1
8. CC#CCOCCC=C1c2ccccc2[C@@H](OC)[C@@H]1C

1. -0.328
2. -0.0046
3. -0.141
4. 0.0437
5. -0.0934
6. -0.242
7. 0.4
8. -0.0004

Working through the 5 molecules below one at a time, give composite z-score for each.
1. CC(=O)OC[C@H]1O[C@H](CC=NOC(C)CN2CCCCc3nc(C)c(C)cc32)C=C[C@@H]1OC(C)=O (stereo partly specified)
2. CC(CCN1CCCCc2nc(C)c(C)cc21)=NOC[C@@H](O)[C@H]1O[C@@H]2OC(C)(C)O[C@@H]2[C@H]1O
3. Cc1ccc(S(=O)(=O)N[C@@H]2COC(=O)CC=C[C@@H](C)[C@H](NS(=O)(=O)c3ccc(C)cc3)COC(=O)[C@H](C)NC(=O)CC=C[C@H]2C)cc1
4. COC(=O)[C@H](CCSC)NC(=O)CC=C[C@@H](C)CO
5. COc1ccc(COC(=O)NN=C2C[C@@H](O)[C@@H](O)[C@@H]3[C@@H]4C(=O)N(Cc5ccc6c(c5)OCO6)C(=O)[C@@H]4CC[C@H]23)cc1

1. 0.589
2. -0.265
3. -0.147
4. -0.101
5. 0.781

This collection of values is drawn from PubChem BioAssay.
